src = the supplement of paper PMC10037445

- Test system: RAW-Dual
- PROTOCOL_SUMMARY: NF-kB SEAP reporter activity, fold change vs agonist alone; cytotoxicity flag (confluency mask): not cytotoxic; higher = enhanced NF-kB activity
- RECORDED_CONDITIONS: agonist: LPS (TLR4) 0.1 ug/mL
In all, about 2,900 compounds were measured (“NF-kB SEAP reporter activity, fold change vs agonist alone”: median about 0.99, highest 2% from about 2.6 on). Only a selection was taken, and the highest values are over-represented in it overall.
# if value of NF-kB SEAP reporter activity reaches 0.9, tag fulfilled; if it stays below, tag not fulfilled

Worked set:
- MOLECULE: "CC(Nc1ncnc2[nH]cnc12)c1cc2cccc(Cl)c2c(=O)n1-c1ccccc1 (stereo not given) (library stock concentration (final ~1000-fold dilution): 10 mM)"
  EXPERIMENTAL_SYSTEM: "RAW-Dual"
  CATEGORY_LABEL: "not fulfilled"
- MOLECULE: "CN1CCN(Cc2ccc(-c3cnc4[nH]cc(-c5ccc6[nH]ccc6c5)c4c3)cc2)CC1 (library stock concentration (final ~1000-fold dilution): 10 mM)"
  EXPERIMENTAL_SYSTEM: "RAW-Dual"
  CATEGORY_LABEL: "not fulfilled"
- MOLECULE: "COC(=O)NC(C(=O)N1CCCC1c1ncc(-c2ccc(-c3ccc(-c4cnc(C5CCCN5C(=O)C(NC(=O)OC)C(C)C)[nH]4)cc3)cc2)[nH]1)C(C)C.Cl.Cl (stereo not given) (library stock concentration (final ~1000-fold dilution): 10 mM)"
  EXPERIMENTAL_SYSTEM: "RAW-Dual"
  CATEGORY_LABEL: "fulfilled"

Exercise: hey, is NF-kB SEAP reporter activity for this one >= 0.9? c1cncc(CN2CCC(n3ncc4c(N5CCOCC5)nc(-c5ccc6[nH]ccc6c5)nc43)CC2)c1 (library stock concentration (final ~1000-fold dilution): 10 mM)
Solution: fulfilled

###

- Test system: RAW-Dual
- PROTOCOL_SUMMARY: NF-kB SEAP reporter activity, fold change vs agonist alone; cytotoxicity flag (confluency mask): not cytotoxic; higher = enhanced NF-kB activity
- RECORDED_CONDITIONS: agonist: ODN 1826 (TLR9) 0.5 ug/mL
The full ranking holds about 2,900 compounds; the median of “NF-kB SEAP reporter activity, fold change vs agonist alone” is about 0.99, and the highest 2% start at about 2.6. The entries come from a sample that favours the highest values as a whole.
MEASURED_METRIC: NF-kB SEAP reporter activity
Lab note: record the figure alone, no unit after it.

Known results for compounds:
- COMPOUND: "N=C(N)NCCCCC1NC(=O)CCSSCC(C(N)=O)NC(=O)C2CCCN2C(=O)C(Cc2c[nH]c3ccccc23)NC(=O)C(CC(=O)O)NC(=O)CNC1=O (centres undefined) (library stock concentration (final ~1000-fold dilution): 10 mM water)"
  NF-kB SEAP reporter activity: 1.15
- COMPOUND: "CC(/C=C/C=C(\\C)C(=O)OC1OC(COC2OC(CO)C(O)C(O)C2O)C(O)C(O)C1O)=C\\C=C\\C=C(C)\\C=C\\C=C(/C)C(=O)OC1OC(COC2OC(CO)C(O)C(O)C2O)C(O)C(O)C1O (centres undefined) (library stock concentration (final ~1000-fold dilution): 10 mM)"
  NF-kB SEAP reporter activity: 0.948
- COMPOUND: "CC(=O)N1CCC(Nc2cc(C(=O)NCC(O)CN3CCc4ccccc4C3)ncn2)CC1 (centres undefined) (library stock concentration (final ~1000-fold dilution): 10 mM)"
  NF-kB SEAP reporter activity: 0.948

Alright, here's another compound for you.
# NF-kB SEAP reporter activity of COc1ccccc1Oc1c(NS(=O)(=O)c2ccc(C(C)(C)C)cc2)nc(-c2ncccn2)nc1OCCO.O (library stock concentration (final ~1000-fold dilution): 10 mM) = 1.01

###

Measured NF-kB SEAP reporter activity, listed per entry for reference.
- System: RAW-Dual
- PROTOCOL_SUMMARY: NF-kB SEAP reporter activity, fold change vs agonist alone; higher = enhanced NF-kB activity
- RECORDED_CONDITIONS: library stock concentration (final ~1000-fold dilution): 10 mM; cytotoxicity flag (confluency mask): not cytotoxic; agonist: Imiquimod (TLR7) […]
Whole data set: some 2,900 compounds, median “NF-kB SEAP reporter activity, fold change vs agonist alone” near 0.99, cut for the highest 2% near 2.6. Many of the other results were omitted from the sample, so the highest values are more common in it than they were.
Lab note: record the figure alone, no unit after it.

- COMPOUND: "O=c1c(-c2ccc(O)cc2)coc2cc(OC3OC(CO)C(O)C(O)C3O)ccc12 (centres undefined)"
  EXPERIMENTAL_SYSTEM: "RAW-Dual"
  TEST_VALUE: 1.08

# NF-kB SEAP reporter activity of CCOC(=O)C(CCc1ccccc1)NC(C)C(=O)N1C(C(=O)O)CC2CCCCC21 (centres undefined) = 0.911

# NF-kB SEAP reporter activity of O=C(c1c(F)ccc(NS(=O)(=O)N2CCC(F)C2)c1F)c1c[nH]c2ncc(-c3cnc(C4CC4)nc3)cc12 (centres undefined) = 1.12

# NF-kB SEAP reporter activity of Cl.O=S(=O)(c1cccc2c(I)cccc12)N1CCCNCC1 = 0.797

# NF-kB SEAP reporter activity of Cc1nc(-c2cn3c(n2)-c2ccc(-c4cnn(C(C)(C)C(N)=O)c4)cc2OCC3)n(C(C)C)n1 = 0.619

###

- System: RAW-Dual
- PROTOCOL_SUMMARY: NF-kB SEAP reporter activity, fold change vs agonist alone; cytotoxicity flag (confluency mask): not cytotoxic; higher = enhanced NF-kB activity
- RECORDED_CONDITIONS: agonist: Pam2CSK4 (TLR2/6) 0.1 ug/mL
Whole data set: some 2,900 compounds, median “NF-kB SEAP reporter activity, fold change vs agonist alone” near 0.99, cut for the highest 2% near 2.6. The entries come from a sample that favours the highest values as a whole.
MEASURED_METRIC: NF-kB SEAP reporter activity
Lab note: record the figure alone, no unit after it.

Known results for molecules:
- MOLECULE: "O.O=c1c(O)c(-c2ccc(O)cc2O)oc2cc(O)cc(O)c12 (library stock concentration (final ~1000-fold dilution): 10 mM)"
  MEASURED_METRIC: "NF-kB SEAP reporter activity"
  TEST_VALUE: 1.15
- MOLECULE: "Cl.N=C(N)NCCCCC(N)C(=O)O (configuration not stated) (library stock concentration (final ~1000-fold dilution): 10 mM water)"
  MEASURED_METRIC: "NF-kB SEAP reporter activity"
  TEST_VALUE: 1.21
- MOLECULE: "C=CC(=O)N1CCN(CCCn2c(=O)c(-c3c(Cl)c(OC)cc(OC)c3Cl)cc3cnc(NC)nc32)CC1 (library stock concentration (final ~1000-fold dilution): 10 mM)"
  MEASURED_METRIC: "NF-kB SEAP reporter activity"
  TEST_VALUE: 0.933
- MOLECULE: "Cl.Cl.Fc1ccc(C(c2ccc(F)cc2)N2CCN(C/C=C/c3ccccc3)CC2)cc1 (library stock concentration (final ~1000-fold dilution): 10 mM)"
  MEASURED_METRIC: "NF-kB SEAP reporter activity"
  TEST_VALUE: 0.829

Case O=C(c1ccccc1)C(O)O (library stock concentration (final ~1000-fold dilution): 10 mM) , RAW-Dual, NF-kB SEAP reporter activity recorded as 1.14

Case Cl.NCCCCC(N)C(=O)O (configuration not stated) (library stock concentration (final ~1000-fold dilution): 10 mM water) , RAW-Dual, NF-kB SEAP reporter activity recorded as 1.21

Case Nc1ccn(C2OC(CO)C(O)C2O)c(=O)n1 (configuration not stated) (library stock concentration (final ~1000-fold dilution): 10 mM water) , RAW-Dual, NF-kB SEAP reporter activity recorded as 1.85

###

- System: RAW-Dual
- PROTOCOL_SUMMARY: NF-kB SEAP reporter activity, fold change vs agonist alone; higher = enhanced NF-kB activity
- RECORDED_CONDITIONS: library stock concentration (final ~1000-fold dilution): 10 mM; cytotoxicity flag (confluency mask): not cytotoxic; agonist: Imiquimod (TLR7) […]
Whole data set: some 2,900 compounds, median “NF-kB SEAP reporter activity, fold change vs agonist alone” near 0.99, cut for the highest 2% near 2.6. For the sample, the highest values were picked, then their nearest neighbours and some compounds at random.
MEASURED_METRIC: NF-kB SEAP reporter activity
Lab note: record the figure alone, no unit after it.

Known results for compounds:
- COMPOUND: "Cc1ccc(/C=N/NC(=O)c2ccccc2Oc2ccccc2)o1"
  EXPERIMENTAL_SYSTEM: "RAW-Dual"
  NF-kB SEAP reporter activity: 0.972
- COMPOUND: "CCC1OC(=O)C(C)C(OC2CC(C)(OC)C(O)C(C)O2)C(C)C(OC2OC(C)CC(N(C)C)C2O)C(C)(O)CC(C)CN(C)C(C)C(O)C1(C)O.O.O (stereo unspecified)"
  EXPERIMENTAL_SYSTEM: "RAW-Dual"
  NF-kB SEAP reporter activity: 0.506
- COMPOUND: "COC1CC2CCC(C)C(O)(O2)C(=O)C(=O)N2CCCCC2C(=O)OC(C(C)CC2CCC(O)C(OC)C2)CC(=O)C(C)C=C(C)C(O)C(OC)C(=O)C(C)CC(C)C=CC=CC=C1C (stereo unspecified)"
  EXPERIMENTAL_SYSTEM: "RAW-Dual"
  NF-kB SEAP reporter activity: 1.44
- COMPOUND: "O=C(Oc1cc(S(=O)(=O)c2ccccc2)ccc1[N+](=O)[O-])c1ccc(Cl)cc1"
  EXPERIMENTAL_SYSTEM: "RAW-Dual"
  NF-kB SEAP reporter activity: 1.32

Alright, here's another compound for you.
# NF-kB SEAP reporter activity of Cn1cc(C2=C(c3ccc(Cl)cc3Cl)C(=O)NC2=O)c2ccccc21 = 1.58
